Recorded values, source the RNAGym collection of RNA variant scans (doi:10.1073/pnas.2313332121).

B1: TPR t1 (parent)
chain: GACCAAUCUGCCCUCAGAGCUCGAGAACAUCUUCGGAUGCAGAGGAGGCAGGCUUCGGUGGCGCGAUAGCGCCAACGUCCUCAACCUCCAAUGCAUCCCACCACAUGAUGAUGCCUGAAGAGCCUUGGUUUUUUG

# Variants of: B1
# methodSummary: polymerase ribozyme fitness, log enrichment relative to wild type (log ratio); higher = more active; in vitro selection for triplet polymerase activity
Recorded polymerase ribozyme fitness (log ratio) for the following variants
Simply state the number, no unit and no words.

Please review the following examples before continuing.
| mutantName | polymerase ribozyme fitness (log ratio) |
| --- | --- |
| A18G U32A C76U C124G | -2.81 |
| C4G U106C C115G | -4.76 |
| A90G A95C | -0.759 |
| C70G G77A G93A A100U A105G U106A | -4.21 |
| C86G G93C U132C | -2.42 |

q: Give the reported value of polymerase ribozyme fitness (log ratio) for this record: A2U C88G
a: -3.37

q: Specify measured polymerase ribozyme fitness (log ratio) for G17U A95G U131A .
a: -2.77

q: Complete the entry with polymerase ribozyme fitness (log ratio) for A18G U81C C89U
a: -4.16

q: Identify the reported polymerase ribozyme fitness (log ratio) for the following entry. A37C A46G G61U C64U
a: -5.42

q: Name the recorded polymerase ribozyme fitness (log ratio) of the item C3U C4A U14G U32G A37G A46C C49A C53U C114G U116C in your answer.
a: -5.66

q: Consider the variant U54A U81A and give its recorded polymerase ribozyme fitness (log ratio).
a: -0.628
